Test system: CpomOR6a
experimental_protocol: Single sensillum recordings, CpomOR6a expressed in Drosophila at1 OSNs
Assay type: cell-based, Cydia pomonella
details: replicate 8; 10 μg per stimulus
quantity: Spike/s
# output: number + unit

Here's what some known entries look like.
CCC/C=C/CCCCCCCOC(C)=O [(E)-8:12Ac, (E)-8-dodecadien-1-yl acetate]
30 Spike/s
C/C=C\CCCCCCCCCOC(C)=O [(Z)-10:12Ac, (Z)-10-dodecadien-1-yl acetate]
4 Spike/s
C/C=C\C=C\CCCCCCCOC(C)=O [(E,Z)-8,10:12Ac, (E,Z)-8,10-dodecadien-1yl acetate]
34 Spike/s

Then there is this compound:
Requested field: Spike/s. Item: C/C=C/C=C\CCCCCCCOC(C)=O [(Z,E)-8,10:12Ac, (Z,E)-8,10-dodecadien-1yl acetate] 40 Spike/s

----------
System: CpomOR1
experimental_protocol: Single sensillum recordings, CpomOR1 expressed in Drosophila at1 OSNs
Format: cell-based, Cydia pomonella
details: replicate 2; 10 μg per stimulus
Excerpt: To perform heterologous expression in D. melanogaster OSNs, CpomORs were amplified using primers in Table 2 and purified PCR products were cloned into the PCR8/GW/TOPO plasmid (Invitrogen) following the recommended protocol. Cassettes with inserts were then transferred from their PCR8/GW/TOPO plasmids to the destination vector (pUASg-HA.attB, constructed by E. Furger and J. Bischof, kindly provided by the Basler group, Zürich), using the Gateway LR Clonase II kit (Invitrogen). […]
quantity: Spikes/s (Spikes/s)
All answers are understood in Spikes/s, so give the number only.

C=C/C(C)=C/CC=C(C)C [(E)-β-ocimene]
8
CC/C=C/CCCCCCCCO [(E9)-12:OH]
0

Then there is this molecule:
Param readout= Spikes/s; system= CpomOR1; entry= CCCCCC(=O)OCCCC [butyl hexanoate] ; returns value. -4

----------
Tested on: CpomOR6a
experimental_protocol: Single sensillum recordings, CpomOR6a expressed in Drosophila at1 OSNs
Type: cell-based, Cydia pomonella
details: replicate 5; 10 μg per stimulus
quantity: Spike/s (Spike/s)
All answers are understood in Spike/s, so give the number only.

Here's what some known entries look like.
C/C=C/C=C/CCCCCCCO [codlemone, (E,E)-8,10-dodecadien-1-ol]
0
CCC/C=C\CCCCCCCOC(C)=O [(Z)-8:12Ac, (Z)-8-dodecadien-1yl acetate]
-2
C/C=C\C=C/CCCCCCCOC(C)=O [(Z,Z)-8,10:12Ac, (Z,Z)-8,10-dodecadien-1yl acetate]
20
C/C=C/CCCCCCCCCOC(C)=O [(E)-10:12Ac, (E)-10-dodecadien-1-yl acetate]
34
C/C=C\C=C\CCCCCCCOC(C)=O [(E,Z)-8,10:12Ac, (E,Z)-8,10-dodecadien-1yl acetate]
8

Requested field: Spike/s. Item: CCC/C=C/CCCCCCCOC(C)=O [(E)-8:12Ac, (E)-8-dodecadien-1-yl acetate] 12

Request: C/C=C\CCCCCCCCCOC(C)=O [(Z)-10:12Ac, (Z)-10-dodecadien-1-yl acetate] 6
